# assay target: pro-protein convertase of the subtype nine binding to recombinant LDLR-AB domain (Homo sapiens, UniProt Q8NBP7)
# Sequence (Q8NBP7 153-692): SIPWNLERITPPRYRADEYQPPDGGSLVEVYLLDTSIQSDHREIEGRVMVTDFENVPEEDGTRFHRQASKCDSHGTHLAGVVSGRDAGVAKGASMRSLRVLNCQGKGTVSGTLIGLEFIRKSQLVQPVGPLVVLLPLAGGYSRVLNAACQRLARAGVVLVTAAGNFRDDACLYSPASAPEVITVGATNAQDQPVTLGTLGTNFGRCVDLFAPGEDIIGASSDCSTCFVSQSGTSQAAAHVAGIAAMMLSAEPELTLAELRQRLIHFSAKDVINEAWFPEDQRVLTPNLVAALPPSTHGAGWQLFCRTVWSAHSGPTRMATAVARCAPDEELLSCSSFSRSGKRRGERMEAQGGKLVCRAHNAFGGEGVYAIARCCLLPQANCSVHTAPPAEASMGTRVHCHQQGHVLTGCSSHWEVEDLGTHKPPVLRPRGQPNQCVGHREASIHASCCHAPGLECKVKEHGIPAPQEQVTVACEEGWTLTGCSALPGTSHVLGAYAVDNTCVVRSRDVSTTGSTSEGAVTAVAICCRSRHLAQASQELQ
# Sequence (Q8NBP7 31-152 partner limits assumed): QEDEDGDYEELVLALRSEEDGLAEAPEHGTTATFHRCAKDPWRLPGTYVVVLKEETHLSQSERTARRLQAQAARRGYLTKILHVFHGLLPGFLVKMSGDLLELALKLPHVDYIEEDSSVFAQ
# protocol description: in vitro quantitative solid phase binding assay (ELISA) of the subtype nine pro-protein convertase to immobilized LDLR
# test parameters: Concentration 10 μM
# Method: The in vitro binding assay described hereinafter is a quantitative solid phase binding assay for determining the efficacy of the compounds. […] The amount of bound gene is measured by binding it with biotinylated anti-His-tag monoclonal antibody, followed by binding with horseradish peroxidase conjugated streptavidin substrate. The color was quantified by ELISA reader at […] which reflects the relative amount of “the gene” that binds to LDLR in presence and absence of the inhibitor. […]
The following molecules are listed with their measured inhibition at 10 µM values.

> print(dat)
                                smiles.text        readout.label  result
1  CCC(=NOCc1ccc(OC)cc1)c1ccc(OCC(=O)NCC2CCOCC2)nc1  inhibition at 10 µM     45%

Which inhibition at 10 µM is reported for this molecule? CC(=NOCc1ccc(C(F)(F)F)cc1)c1ccc(OCC(=O)NCC2CCOCC2)cc1
38%

May I ask what inhibition at 10 µM has been recorded for CCC(=NOCc1ccc(C(F)(F)F)cc1)c1ccc(NCC(=O)NCC2CCOCC2)cc1 ?
40%

Requested read-out: inhibition at 10 µM. Entry: CCC(=NOCc1ccc(C(F)(F)F)cc1)c1ccc(OCC(=O)NCC2CCOCC2)nc1
46%
